measured_target: SCRIB_1, Q14160
Sequence (Q14160 718-814): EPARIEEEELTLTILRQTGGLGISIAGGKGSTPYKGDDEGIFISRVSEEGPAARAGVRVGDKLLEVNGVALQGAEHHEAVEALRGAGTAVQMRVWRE
procedure_summary: holdup assay
Design: key: below the threshold = too weak to quantify, mostly under pKd 3.1 to 4
run_conditions: plain residues with an end cap or a label only (N-terminal biotin on a linker: ttds)
Criterion met means recorded pKd is 5 or above; Criterion not met means it is below 5.

>>> print(df.to_string())
                          binder       answer_label
0   SVWLRKETRV [CYSLTR2, Q9NS75]  Criterion not met
1     RSLEEEESQL [GRASP, Q7Z6J2]  Criterion not met
2    TVASEKESVM [SLC1A5, Q15758]      Criterion met
3      ERKLSSESQV [LRP4, O75096]  Criterion not met
4     GQDSREETQL [KCNT2, Q6UVM3]  Criterion not met
5   PKTPPTDTSV [KIR3DL3, Q8N743]  Criterion not met
6      QSARYRDTEL [TJP2, Q9UDY2]  Criterion not met
7    IYVPEAQTRL [DLGAP4, Q9Y2H0]      Criterion met
8    VLRLQSETSV [VANGL1, Q8TAA9]      Criterion met
9  SSRTRRETQL [HPV16-E6, P03126]      Criterion met

Now for another entry.
Asked: Identify whether the reported pKd of the following binder is 5 or greater: STLTIFETAL [ABCC4, O15439]
Given back: Criterion met
